Every entry's value here was drawn from ChEMBL document CHEMBL3044850.

# System: Tetranychus cinnabarinus
# ASSAY COMMENT: Insecticidal activity against Tetranychus cinnabarinus (carmine spider mite) in soybean tender shoots assessed as mortality at 0.2 mg/ml treated for 5 secs measured after 48 hr
# Assay type: functional
Please mark TRUE if the recorded mortality at 200 µg/mL is equal to or greater than 7%, and FALSE if it falls below.

Worked examples, 2 compounds total:
Cc1ccc(Cl)c(Oc2c(/C=N/OCc3cnc(Cl)s3)c(C(F)(F)F)nn2C)c1 ... TRUE
Cn1nc(C(F)(F)F)c(/C=N/OCc2cnc(Cl)s2)c1Oc1ccc(Br)cc1 ... FALSE

API: above_or_equal(metric=mortality at 200 µg/mL, cutoff=7%) for item Cn1nc(C(F)(F)F)c(/C=N/OCc2cnc(Cl)s2)c1Sc1ccc(Cl)cc1
TRUE

API: above_or_equal(metric=mortality at 200 µg/mL, cutoff=7%) for item COc1ccc(Oc2c(/C=N/OCc3cnc(Cl)s3)c(C(F)(F)F)nn2C)cc1
TRUE

API: above_or_equal(metric=mortality at 200 µg/mL, cutoff=7%) for item Cc1nn(C)c(Oc2ccccc2)c1/C=N/OCc1ccc(C(=O)OC(C)(C)C)cc1 [FENPYROXYMATE]
TRUE

API: above_or_equal(metric=mortality at 200 µg/mL, cutoff=7%) for item Cn1nc(C(F)(F)F)c(/C=N/OCc2cnc(Cl)s2)c1Oc1cccc(Cl)c1
TRUE

API: above_or_equal(metric=mortality at 200 µg/mL, cutoff=7%) for item Cn1nc(C(F)(F)F)c(/C=N/OCc2cnc(Cl)s2)c1Oc1ccccc1Cl
FALSE
